Test system: A-172 cells
Experiment: MTT cell viability assay, A-172
Format: cell-based
Details: Homo sapiens, 72 h treatment
IC50 values by entry
Please state the figure in µM; there is no need to write the unit.

Worked cases, answers included:
MOLECULE	UNIT_ABBREV	IC50
CC1(C)CCC[C@]2(C)[C@@H](CC[C@@](C)(O)/C=C/c3ccc(CNCCCCCCNCC45CC6CC(CC(C6)C4)C5)o3)[C@](C)(O)CC[C@@H]12 [Compound 4]	µM	1.38
CC1(C)CCC[C@]2(C)[C@@H](CC[C@@](C)(O)/C=C/c3ccc(CNCCCCCCNCC45CC6CC(CC(C6)C4)C5)s3)[C@](C)(O)CC[C@@H]12 [Compound 1]	µM	2.47

Kindly review the next molecule as well.
Readout IC50 for CC1(C)CCC[C@]2(C)[C@@H](CC[C@@](C)(O)/C=C/c3ccc(CNCCCCCCCCNCC45CC6CC(CC(C6)C4)C5)o3)[C@](C)(O)CC[C@@H]12 [Compound 5] , test system A-172 cells, was 4.74

###

Tested on: A-172 cells
Test: MTT cell viability assay, A-172
Format: cell-based
Conditions: Homo sapiens, 72 h treatment
EXPERIMENTAL_ENDPOINT: IC50 (µM)
Please state the figure in µM; there is no need to write the unit.

COMPOUND	IC50 [µM]
CC1(C)CCC[C@]2(C)[C@@H](CC[C@@](C)(O)/C=C/c3ccc(CNCCCCCCNCCC45CC6CC(CC(C6)C4)C5)o3)[C@](C)(O)CC[C@@H]12 [Compound 6]	2
CC1(C)CCC[C@]2(C)[C@@H](CC[C@@](C)(O)/C=C/c3ccc(CNCCCCCCCCNCC45CC6CC(CC(C6)C4)C5)s3)[C@](C)(O)CC[C@@H]12 [Compound 2]	2.05

Readout IC50 for CC1(C)CCC[C@]2(C)[C@@H](CC[C@@](C)(O)/C=C/c3ccc(CNCCCCCCNCCC45CC6CC(CC(C6)C4)C5)s3)[C@](C)(O)CC[C@@H]12 [Compound 3] , test system A-172 cells, was 3.36

###

Test: Maximum tolerated dose testing
Details: Rag1-/- (immunodeficient), mouse, in vivo, ip, male Rag1 mice; read-out: maximal tolerated dose (MTD)
EXPERIMENTAL_ENDPOINT: MTD (mg/kg)
Please state the figure in mg/kg; there is no need to write the unit.

Measured MTD of `CC1(C)CCC[C@]2(C)[C@@H](CC[C@@](C)(O)/C=C/c3ccc(CNCCCCCCCCNCC45CC6CC(CC(C6)C4)C5)o3)[C@](C)(O)CC[C@@H]12` : 25

###

System: U87 cells
Assay: MTT cell viability assay, U87
Assay type: cell-based
Settings: Homo sapiens, U-87 MG, 72 h treatment
Could you please mark Yes for values of IC50 below 2000 nM and No for values at or above it?

Reference set (3 entries):
COMPOUND	GROUP_LABEL
CC1(C)CCC[C@]2(C)[C@@H](CC[C@@](C)(O)/C=C/c3ccc(CNCCCCCCCCNCC45CC6CC(CC(C6)C4)C5)s3)[C@](C)(O)CC[C@@H]12	No
CC1(C)CCC[C@]2(C)[C@@H](CC[C@@](C)(O)/C=C/c3ccc(CNCCCCCCNCCC45CC6CC(CC(C6)C4)C5)s3)[C@](C)(O)CC[C@@H]12	No
CC1(C)CCC[C@]2(C)[C@@H](CC[C@@](C)(O)/C=C/c3ccc(CNCCCCCCNCC45CC6CC(CC(C6)C4)C5)o3)[C@](C)(O)CC[C@@H]12	Yes

Prompt line: Hello, I'm reviewing records and need to know if IC50 of `CC1(C)CCC[C@]2(C)[C@@H](CC[C@@](C)(O)/C=C/c3ccc(CNCCCCCCNCCC45CC6CC(CC(C6)C4)C5)o3)[C@](C)(O)CC[C@@H]12` is below 2000 nM. Could you check?
Response line: No

Prompt line: Hello, I'm reviewing records and need to know if IC50 of `CC1(C)CCC[C@]2(C)[C@@H](CC[C@@](C)(O)/C=C/c3ccc(CNCCCCCCCCNCC45CC6CC(CC(C6)C4)C5)o3)[C@](C)(O)CC[C@@H]12` is below 2000 nM. Could you check?
Response line: No

Prompt line: Hello, I'm reviewing records and need to know if IC50 of `CC1(C)CCC[C@]2(C)[C@@H](CC[C@@](C)(O)/C=C/c3ccc(CNCCCCCCNCC45CC6CC(CC(C6)C4)C5)s3)[C@](C)(O)CC[C@@H]12` is below 2000 nM. Could you check?
Response line: No
